Cited source: the supplement of paper PMC12494721

System: Clostridium sporogenes DSM 1664
Assay: growth (OD595) fold change vs plate DMSO controls (fold change (ratio)); higher = more growth
Details: incubation time: 27 h, anaerobic, 37 °C
Structures can show the parent of a compound that is named as a salt.
Classify by measured growth: label 1 if it is equal to or exceeds 0.9, label 0 if it is smaller.

{"columns": ["molecule", "label"],
 "data": [
  ["CC[C@H](C)C(=O)O[C@H]1C[C@@H](C)C=C2C=C[C@H](C)[C@H](CC[C@@H]3C[C@@H](O)CC(=O)O3)[C@H]21 [Lovastatin] (20 µM)", "label 1"],
  ["O=C1c2c(O)ccc(O)c2C(=O)c2c(NCCNCCO)ccc(NCCNCCO)c21 [Mitoxantrone dihydrochloride] (20 µM)", "label 0"],
  ["CN(C)[C@@H]1C(=O)C(C(=O)NCNCCCC[C@H](N)C(=O)O)=C(O)[C@@]2(O)C(=O)C3=C(O)c4c(O)cccc4[C@@](C)(O)[C@H]3C[C@@H]12 [Lymecycline] (20 µM)", "label 0"],
  ["C=CC1=C(C(=O)O)N2C(=O)[C@@H](NC(=O)/C(=N\\OCC(=O)O)c3csc(N)n3)[C@H]2SC1 [Cefixime] (20 µM)", "label 0"],
  ["CN1Cc2c(N)cccc2C(c2ccccc2)C1 (stereo not given) [Nomifensine maleate] (20 µM)", "label 1"],
  ["CO[C@@]12[C@H](COC(N)=O)C3=C(C(=O)C(C)=C(N)C3=O)N1C[C@@H]1N[C@@H]12 [Mitomycin C] (20 µM)", "label 0"],
  ["CCCNC(C)(C)C(=O)Nc1ccccc1C [Quatacaine] (20 µM)", "label 1"],
  ["CC(C)Nc1cccnc1N1CCN(C(=O)c2cc3cc(NS(C)(=O)=O)ccc3[nH]2)CC1 [Delavirdine] (20 µM)", "label 1"],
  ["COc1ccc(CC2c3cc(OC)c(OC)cc3CC[N+]2(C)CCC(=O)OCCCCCOC(=O)CC[N+]2(C)CCc3cc(OC)c(OC)cc3C2Cc2ccc(OC)c(OC)c2)cc1OC (stereo not given) [Atracurium besylate] (20 µM)", "label 1"],
  ["Cc1nc2n(c(=O)c1CCN1CCC(c3noc4cc(F)ccc34)CC1)CCCC2 [Risperidone] (20 µM)", "label 1"],
  ["CCN(CC)C(=O)c1cccnc1 [Nikethamide] (20 µM)", "label 1"],
  ["Cc1ccc(/C(=C\\CN2CCCC2)c2ccccn2)cc1 [Triprolidine hydrochloride] (20 µM)", "label 1"],
  ["O=C1NCCN1c1ncc([N+](=O)[O-])s1 [Niridazole] (20 µM)", "label 0"],
  ["O=C1CCC(N2C(=O)c3ccccc3C2=O)C(=O)N1 (stereo not given) [Thalidomide] (20 µM)", "label 1"]
]}

====

# reported fold change of Cadaverine concentration; entries follow
System: Klebsiella aerogenes DSM 30053
Experiment: fold change of Cadaverine concentration vs plate DMSO controls (fold change (ratio)); higher = more amine produced, active = hit call of the paper (significant change in both replicates, either direction)
Details: incubation time: 27 h, anaerobic, 37 °C
Structures can show the parent of a compound that is named as a salt.
readout: fold change of Cadaverine concentration

{"columns": ["compound", "measured.on", "observed"],
 "data": [
  ["Clc1ccc(C(Cn2ccnc2)OCc2ccsc2Cl)c(Cl)c1 (stereo not drawn) [Tioconazole] (20 µM)", "Klebsiella aerogenes DSM 30053", "0.997 (inactive)"],
  ["CN[C@@H]1[C@H](O[C@H]2[C@H](O[C@H]3[C@H](O)[C@@H](O)[C@H](N=C(N)N)[C@@H](O)[C@@H]3N=C(N)N)O[C@@H](C)[C@]2(O)C=O)O[C@@H](CO)[C@H](O)[C@H]1O [Streptomycin sulfate] (20 µM)", "Klebsiella aerogenes DSM 30053", "0.977 (inactive)"],
  ["CC[C@H](C)C(=O)O[C@H]1C[C@H](O)C=C2C=C[C@H](C)[C@H](CC[C@@H](O)C[C@@H](O)CC(=O)O)[C@H]21 [Pravastatin] (20 µM)", "Klebsiella aerogenes DSM 30053", "1.01 (inactive)"]
]}

====

Tested on: Clostridium sporogenes DSM 1664
Assay: fold change of Tryptamine concentration vs plate DMSO controls (fold change (ratio)); higher = more amine produced, active = hit call of the paper (significant change in both replicates, either direction)
Conditions: incubation time: 27 h, anaerobic, 37 °C
Structures can show the parent of a compound that is named as a salt.

{"columns": ["molecule", "fold change of Tryptamine concentration"],
 "data": [
  ["O=C(Cn1c(=O)sc2ccc(Cl)cc21)N1CCN(CCO)CC1 [Tiaramide Hydrochloride] (20 µM)", "1.08 (inactive)"],
  ["CN(Cc1cc(Br)cc(Br)c1N)C1CCCCC1 [Bromhexine hydrochloride] (20 µM)", "1.05 (inactive)"],
  ["CN(C)CCCO[C@@H]1[C@H]2OC(C)(C)O[C@H]2O[C@@H]1[C@H](O)CO [Amiprilose hydrochloride] (20 µM)", "1.04 (inactive)"],
  ["O=C(O)CCc1nc(-c2ccccc2)c(-c2ccccc2)o1 [Oxaprozin] (20 µM)", "1.03 (inactive)"],
  ["NC(=O)C(c1ccccc1)(c1ccccc1)[C@@H]1CCN(CCc2ccc3c(c2)CCO3)C1 [Darifenacin hydrobromide] (20 µM)", "1.19 (inactive)"],
  ["COc1cc(C(=O)NC2CCCNC2)cc(OC)c1OC (stereo unspecified) [Troxipide] (20 µM)", "1.03 (inactive)"],
  ["CC(=O)N[C@@H](CC(=O)O)C(=O)N[C@@H](CCC(=O)O)C(=O)O [Spaglumic acid] (20 µM)", "1.02 (inactive)"],
  ["O=C1CCc2ccc(OCCCCN3CCN(c4cccc(Cl)c4Cl)CC3)cc2N1 [Aripiprazole] (20 µM)", "0.955 (inactive)"],
  ["Nc1nc(=O)n([C@@H]2CS[C@H](CO)O2)cc1F [(-) Emtricitabine] (20 µM)", "1.03 (inactive)"],
  ["CCCCC1C(=O)N(c2ccccc2)N(c2ccccc2)C1=O [Phenylbutazone] (20 µM)", "0.986 (inactive)"],
  ["Nc1ccc2cc3ccc(N)cc3nc2c1 [Proflavine hemisulfate] (20 µM)", "1 (inactive)"],
  ["Nc1ccc(S(=O)(=O)Nc2nccs2)cc1 [Sulfathiazole] (20 µM)", "0.968 (inactive)"],
  ["N[C@@H]1CONC1=O [D-cycloserine] (20 µM)", "0.958 (inactive)"],
  ["C[C@@H](O[C@H]1OCCN(Cc2n[nH]c(=O)[nH]2)[C@H]1c1ccc(F)cc1)c1cc(C(F)(F)F)cc(C(F)(F)F)c1 [Aprepitant] (20 µM)", "0.945 (inactive)"],
  ["CC(C)NCC(O)c1ccc(O)c(O)c1 (single isomer, unassigned; (-)) [(-) Isoproterenol hydrochloride] (20 µM)", "1.03 (inactive)"],
  ["COc1ccc(C(=O)CC(=O)c2ccc(C(C)(C)C)cc2)cc1 [Avobenzone] (20 µM)", "0.932 (inactive)"],
  ["c1ccc(CC2=NCCN2)cc1 [Tolazoline hydrochloride] (20 µM)", "0.962 (inactive)"],
  ["CC(C)(C(=O)O)c1ccc(C(O)CCCN2CCC(C(O)(c3ccccc3)c3ccccc3)CC2)cc1 (stereo unspecified) [Fexofenadine hydrochloride] (20 µM)", "1.04 (inactive)"],
  ["CCCCC(CC)CN1C(=O)[C@@H]2[C@H](C1=O)[C@@H]1C=C[C@H]2C1 (mixture of isomers) (20 µM)", "0.978 (inactive)"],
  ["COc1ccccc1N1CCN(CCCNc2cc(=O)n(C)c(=O)n2C)CC1 [Urapidil hydrochloride] (20 µM)", "1.04 (inactive)"],
  ["CN1CCN(CC(=O)N2c3ccccc3C(=O)Nc3cccnc32)CC1 [Pirenzepine dihydrochloride] (20 µM)", "1.02 (inactive)"],
  ["CNC1(C)C2CCC(C2)C1(C)C (stereo unspecified) [Mecamylamine hydrochloride] (20 µM)", "1.06 (inactive)"],
  ["CC[C@H](C)C(=O)O[C@H]1C[C@@H](C)C=C2C=C[C@H](C)[C@H](CC[C@@H]3C[C@@H](O)CC(=O)O3)[C@H]21 [Lovastatin] (20 µM)", "0.945 (inactive)"],
  ["CC(C(=O)O)c1ccc(-c2ccccc2)c(F)c1 (stereo unspecified) [Flurbiprofen] (20 µM)", "1.02 (inactive)"],
  ["CC(C)C[C@H](NC(=O)[C@@H](O)[C@H](N)Cc1ccccc1)C(=O)O [Ubenimex] (20 µM)", "1.15 (inactive)"],
  ["Cn1c(=O)c2nc[nH]c2n(C)c1=O [Theophylline monohydrate] (20 µM)", "1.1 (inactive)"],
  ["c1cc2ccc3ccc4ccc5cccc6c(c1)c2c3c4c56 [Benzo-[g,h,i]perylene] (20 µM)", "1.02 (inactive)"],
  ["Oc1c(Cl)cc(Cl)c(Cl)c1Cc1c(O)c(Cl)cc(Cl)c1Cl [Hexachlorophene] (20 µM)", "0.0251 (active)"],
  ["CN(C)[C@@H]1C(=O)C(C(=O)NCNCCCC[C@H](N)C(=O)O)=C(O)[C@@]2(O)C(=O)C3=C(O)c4c(O)cccc4[C@@](C)(O)[C@H]3C[C@@H]12 [Lymecycline] (20 µM)", "0.933 (inactive)"],
  ["CCN1CCCC1CNC(=O)c1cc(S(N)(=O)=O)ccc1OC (stereo unspecified) [Sulpiride] (20 µM)", "0.949 (inactive)"],
  ["CC(C)NCC(O)c1cc(O)cc(O)c1 (stereo unspecified) [Metaproterenol sulfate] (20 µM)", "1.03 (inactive)"]
]}
